Data provenance is patent US20110195900A1.

Assayed Target: human parathyroid hormone receptor 2 (human, UniProt P49190)
Method Description: cell-based or functional assay
Starred links: 1 amine or outer side, 2 acyl side, 3 side chain; linkers in the order of their positions; H or OH if unused. Non-standard residues stand in square brackets, D forms with d. No end group written: not given here. hSer(OMe) = COCC[C@H](N[*:1])C(=O)[*:2]; 1Nal = N[C@@H](Cc1cccc2ccccc12)C(=O)O; β3hI = CC[C@H](C)[C@H](N)CC(=O)O; β3hF = N[C@H](CC(=O)O)Cc1ccccc1; Nle = CCCC[C@H](N)C(=O)O; Aib = CC(C)(N)C(=O)O; βAla = NCCC(=O)O
Dear colleague, classification is by hPTHR-2 EC50 (nM), luciferase reporter gene assay, with ranges listed here: low (below 6 nM), middle (6 nM to below 40 nM), high (40 nM or more)

Consider the worked cases shown below.
SVSEIQLXHNLGXHLNSXERVEXLRKLLQDVHNF (Nle^8, Aib^13, β-hIle^18, 1-Nal^23, C-terminal NH2 (amide)) [[Nle^8, Aib^13, β-hIle^18, 1-Nal^23, Leu^27] hPTH (1-34)-NH2]; high
[Aib]VSEIQL[Nle]HSLGKHLK[βAla][Nle]ERVE[1Nal]LRKLLQRVHEE-NH2; middle
SVSEIQL[Nle]HSLGKHLKS[β3hI]ERVE[1Nal]LRKLLQRV-NH2 [[Nle^8, Ser^10, Lys^16, β-hIle^18, 1-Nal^23, Leu^27, Arg^30] hPTH (1-31)-NH2]; middle

[in] Kindly identify the class of [Aib]VSEIQL[Nle]HNLGKHLN[β3hF][hSer(OMe)]ERVE[1Nal]LRKLLQDVHNF-NH2 [[Aib^1, Nle^8, β-hPhe^17, hSer(OMe)^18, 1-Nal^23, Leu^27] hPTH-(1-34)-NH2] .
[out] high

[in] Kindly identify the class of SVSEIQL[Nle]HNLGKHLES[β3hI]ERVE[1Nal]LRKLLQDVHNF-NH2 [[Nle^8, Glu^16, β-hIle^18, 1-Nal^23, Leu^27] hPTH (1-34)-NH2] .
[out] middle

[in] Kindly identify the class of SVSEIQL[Nle]HNLGKHLNS[β3hI]ERVE[1Nal]LRKLLQDVHNE-NH2 [[Nle^8, β-hIle^18, 1-Nal^23, Leu^27, Glu^34] hPTH (1-34)-NH2] .
[out] high

[in] Kindly identify the class of SVSEIQL[Nle]HELGKHLNS[β3hI]ERVE[1Nal]LRKLLQDVHNF-NH2 [[Nle^8, Glu^10, β-hIle^18, 1-Nal^23, Leu^27] hPTH (1-34)-NH2] .
[out] low

[in] Kindly identify the class of SVSEIQL[Nle]HNLGKHLNS[β3hI]ERVE[1Nal]LRKLLQDVHKF-NH2 [[Nle^8, β-hIle^18, 1-Nal^23, Leu^27, Lys^33] hPTH (1-34)-NH2] .
[out] middle

[in] Kindly identify the class of [Aib]VSEIQL[Nle]HNLGKHLNS[β3hF]ERVE[1Nal]LRKLLQDVHNF-NH2 [[Aib^1, Nle^8, β-hPhe^18, 1-Nal^23, Leu^27 hPTH (1-34)-NH2] .
[out] low
